Attribute: kon
- target or system: T1, recombinant human OX40-his protein (human, UniProt P43489 29-214)
- T1 construct: Secreted via the native signal peptide, which lies within residues 1-214; also called Human OX40R-His; histidine tagged human OX40 receptor extracellular domain
- T1 sequence: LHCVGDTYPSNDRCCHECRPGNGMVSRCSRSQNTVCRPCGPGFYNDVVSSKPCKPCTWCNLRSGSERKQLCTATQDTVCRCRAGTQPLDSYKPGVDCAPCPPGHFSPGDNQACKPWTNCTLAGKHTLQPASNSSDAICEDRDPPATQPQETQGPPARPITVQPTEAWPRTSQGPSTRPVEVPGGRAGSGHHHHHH
- experimental details: SPR (BIAcore 2000), antibody captured on Protein A, OX40-his injected
Give just the numeric value; M⁻¹ s⁻¹ need not be written.

binder | measure unit | kon
Chimeric 7H11 IgG1 (antibody, V domains shown, Mouse variable domains on human IgG1 heavy constant domains and human kappa constant domain; also called 7H11 (chimeric); chimeric 7H11 antibody) VH: QVQLQQSGPELVKPGASVKMSCKASGYTFTRYYIHWMNQRPGQGLEWIGWIYPGDGSTKYNEKFKGKTTLTADTSSSTAYMLLSSLTSEDSAIYFCAREYGNYDYWGQGTTVTVSS VL: DIVMTQSPSSLSVSAGEKVTMSCKSSQSLLNSGNQKNYLAWYQQKPGQPPKLLIYGASTRESGVPDRFTGSGSGTDFTLTISSVQAEDLAVYYCQNDHSYPYTFGGGTKLEIK | M⁻¹ s⁻¹ | 11600
Humanized 7H11 VH3/VL1 IgG1 (antibody, V domains shown, human IgG1, kappa; also called Humanized VH3-VL1 IgG1) VH: QVQLVQSGAEVKKPGASVKVSCKASGYTFTRYYMHWVRQAPGQGLEWMGIIYPGDGSTSYAQKFQGRVTMTRDTSTSTVYMELSSLRSEDTAVYYCAREYGNYDYWGQGTLVTVSS VL: DIVMTQSPDSLAVSLGERATINCKSSQSLLNSGNQKNYLAWYQQKPGQPPKLLIYGASTRESGVPDRFSGSGSGTDFTLTISSLQAEDVAVYYCQNDHSYPYTFGQGTKLEIKR | M⁻¹ s⁻¹ | 62500

# kon of Humanized 7H11 VH2/VL1 IgG1 (antibody, V domains shown, human IgG1, kappa; also called Humanized VH2-VL1 IgG1) VH: QVQLVQSGAEVKKPGASVKVSCKASGYTFTRYYMHWVRQAPGQGLEWMGWIYPGDGSTNYAQKFQGRVTMTRDTSISTAYMELSRLRSDDTAVYYCAREYGNYDYWGQGTLVTVSS VL: DIVMTQSPDSLAVSLGERATINCKSSQSLLNSGNQKNYLAWYQQKPGQPPKLLIYGASTRESGVPDRFSGSGSGTDFTLTISSLQAEDVAVYYCQNDHSYPYTFGQGTKLEIKR = 58500
